- System name: Torsin-1A (Homo sapiens) (UniProt O14656)
- Sequence (O14656 whole entry, looked up): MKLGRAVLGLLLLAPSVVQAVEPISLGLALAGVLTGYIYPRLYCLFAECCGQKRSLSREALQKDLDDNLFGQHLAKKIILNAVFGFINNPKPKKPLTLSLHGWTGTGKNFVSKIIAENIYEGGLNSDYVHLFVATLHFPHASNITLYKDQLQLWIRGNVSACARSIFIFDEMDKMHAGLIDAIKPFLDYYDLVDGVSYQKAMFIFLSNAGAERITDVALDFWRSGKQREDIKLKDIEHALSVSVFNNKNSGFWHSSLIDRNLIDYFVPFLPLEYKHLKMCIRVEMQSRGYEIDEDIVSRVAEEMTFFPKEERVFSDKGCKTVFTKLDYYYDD
- Test summary: torsin A binders from cell lysate, primary screen, small-molecule microarray, wild-type, 635/667 nm (AID 1149)
- Condition parameters: COS7 hTOR1A-WT lysate, 635 nm fluorescence, higher = more signal
Entries and their composite z-score
Answer using only a numeral; do not append any unit.

| Compound | composite z-score |
| --- | --- |
| C=C[C@H](OC)[C@@H](OC(=O)Nc1ccc(OC)cc1)c1ccc(O)c(F)c1 | 0.732 |
| C=C(C)[C@@H]1CC=C(C(O)C2C=CC3C(=O)N(C)C(=O)C3N2Nc2ccccc2)CC1 (stereo partly drawn) | 0.425 |
| CO[C@H]1O[C@H](CO)[C@@H](OC(=O)Nc2ccccc2)[C@H](OC(=O)Nc2ccccc2)[C@@H]1OC(=O)Nc1ccccc1 | 0.451 |

# input compound: `CC[C@@H]1C=C(C(=O)O)[C@H](c2ccc(Br)cc2)N1S(=O)(=O)c1ccc(C)cc1` ; wanted: its composite z-score
0.297

# input compound: CC1(C)C2C=C(C(O)C3C=CC4C(=O)NC(=O)C4N3Nc3ccc(Cl)cc3Cl)C[C@@H]1C2 (stereo partly drawn) ; wanted: its composite z-score
-0.0995

# input compound: `COCCOC(=O)N1C(=O)[C@@]2(c3cc(C#CCC(C(=O)OC)C(=O)OC)ccc31)[C@H](c1ccccc1OCCO)N1[C@H](c3ccccc3)[C@H](c3ccccc3)OC(=O)[C@H]1[C@@H]2C(=O)N1CCN(c2ncccn2)CC1` ; wanted: its composite z-score
1.01

# input compound: COc1ccc(C(O)C2C=CC3C(=O)N(Cc4ccccc4)C(=O)C3N2n2cnnc2)cc1OCc1ccccc1 (stereo not drawn) ; wanted: its composite z-score
-0.476

# input compound: `Cc1ccc(S[C@]2(C(=O)NC3CC3)CC(=O)N(Cc3ccccc3)[C@@H]2c2ccc(CO)cc2I)cc1` ; wanted: its composite z-score
-1.19

* * *

- System: Human papillomavirus type 1a protein E7 (residues 44-93)
- Test summary: HPV1a E7 fragment binders on microarrays, primary screen, biochemical, small-molecule microarray, residues 44-93, 635 nm fluorescence (AID 1108);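 note: E7 fragment applied at 1 µg/mL in TBST for 1 h at 4 C; score combines spot fluorescence with its signal to noise ratio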
- Condition parameters: small-molecule microarray binding, fluorescence 635 nm; higher = more signal
Entries and their composite z-score
Answer using only a numeral; do not append any unit.

| Compound string | composite z-score |
| --- | --- |
| COC(=O)[C@@]1(Cc2ccccc2)[C@H]2c3cc(C(=O)N(C)C)n(Cc4ccsc4Br)c3C[C@H]2CN1C(=O)c1ccccc1 | 1.41 |

# input compound: `CC(C)C[C@@H]1NC(=O)[C@@H]2C[C@H](C(=O)NCc3ccc(F)cc3)[C@H](c3cccc(OCCO)c3)N2C1=O` ; wanted: its composite z-score
0.0179

# input compound: `C=C(CCCC)/C(=C/C[C@@H](OC(C)=O)c1ccc(OCCO)cc1)c1cnc2ccccc2c1` ; wanted: its composite z-score
1.13

# input compound: `CCOC(=O)C[C@H]1[C@H](OC(=O)c2ccc(C(=O)c3ccccc3)cc2)[C@@H](NC(=O)CC(C)C)c2cc(OCCCO)ccc2N1C(=O)c1ccc2ccccc2n1` ; wanted: its composite z-score
1.15

* * *

- Tested on: Human papillomavirus type 1a E7 protein (residues 1-88)
- Test summary: HPV1a E7 small-molecule binders, primary screen, biochemical, small-molecule microarray, residues 1-88, 635 nm (AID 1129)
- Condition parameters: small-molecule microarray binding, fluorescence 635 nm; higher = more signal
Entries and their composite z-score

| Compound | Value |
| --- | --- |
| O=C1N(Cc2ccccc2)c2ccccc2[C@@H]2OC(c3ccc(OCCCO)cc3)=N[C@]12CCS(=O)(=O)c1ccccc1 | 1.2 |
| COCCOC(=O)N1C(=O)[C@@]2(c3cc(C#CCC(C(=O)OC)C(=O)OC)ccc31)[C@H](c1ccccc1OCCO)N1[C@H](c3ccccc3)[C@H](c3ccccc3)OC(=O)[C@H]1[C@@H]2C(=O)N1CCN(c2ncccn2)CC1 | 1.12 |
| CN1C(=O)C2C=CC(C(O)c3ccco3)N(Nc3ccccc3)C2C1=O (stereo not given) | 0.103 |
| COC(=O)[C@@]1(Cc2ccc(F)cc2)[C@H]2c3cc(C(=O)N(C)C)n(Cc4cc(F)c(F)c(F)c4)c3C[C@H]2CN1C(=O)c1ccccc1 | 1.21 |
| O=C(CS)NCCCCCCNC(=O)[C@@H]1C[C@@H]2C(=O)N[C@@H](Cc3ccccc3)C(=O)N2[C@@H]1c1cccc(OCCO)c1 | 1.23 |
| CCCC[C@H]1OB(O)C[C@H]2C1=C(COC)C[C@H]1C(=O)N(C)C(=O)[C@H]12 | -0.292 |
| COCCOC(=O)N1C(=O)[C@@]2(c3cc(C#Cc4ccc(OC)cc4)ccc31)[C@H](c1ccc(OCCO)cc1)N1[C@H](c3ccccc3)[C@H](c3ccccc3)OC(=O)[C@H]1[C@@H]2C(=O)N1CCN(c2ncccn2)CC1 | 1.15 |
| CCCC[C@@H]1C[C@H]1[C@@H](NC(=O)c1ccccc1)c1ccc(C(=O)OC)cc1 | -0.429 |

Give the reported composite z-score for CN1C(=O)C2C=CC(C(O)c3ccccc3)N(N(c3ccccc3)c3ccccc3)C2C1=O (stereo not given) (system: Human papillomavirus type 1a E7 protein (residues 1-88)).
-0.54

Give the reported composite z-score for `COc1ccc(C#Cc2ccc3c(c2)[C@]2(C(=O)N3)[C@H](c3ccccc3OCCO)N3[C@H](c4ccccc4)[C@H](c4ccccc4)OC(=O)[C@H]3[C@@H]2C(=O)Nc2nc3ccccc3s2)cc1` (system: Human papillomavirus type 1a E7 protein (residues 1-88)).
1.16

Give the reported composite z-score for `C=C(CCCC)C(=O)CC[C@@H](OC(=O)c1ccccc1-c1ccccc1C(=O)O)c1ccc(OCCO)cc1` (system: Human papillomavirus type 1a E7 protein (residues 1-88)).
0.0862

Give the reported composite z-score for O=C(OCc1ccccc1)C1=CCC2c3[nH]c4ccccc4c3C(=O)C1N2S(=O)(=O)c1ccccc1[N+](=O)[O-] (stereo not given) (system: Human papillomavirus type 1a E7 protein (residues 1-88)).
1.26

Give the reported composite z-score for COc1cc2c(cc1O)C(c1cccs1)N(C)CC2 (stereo not given) (system: Human papillomavirus type 1a E7 protein (residues 1-88)).
-1.33

Give the reported composite z-score for CC(C)C(O)C1C=CC2C(=O)N(c3ccccc3)C(=O)C2N1Nc1ccc([N+](=O)[O-])cc1 (stereo not given) (system: Human papillomavirus type 1a E7 protein (residues 1-88)).
1.17

Give the reported composite z-score for `CN(C)CCCC[C@@H]1NC(=O)[C@H]2C[C@@H](C(=O)NCCCCCCN)[C@@H](c3ccc(O)cc3)N2C1=O` (system: Human papillomavirus type 1a E7 protein (residues 1-88)).
1.09

* * *

Entries and their z-score
- Test summary: P. aeruginosa biofilm formation inhibitors, primary screen, strain PAO1, LB-PBS medium, absorbance 600 nm (AID 1176); note: test concentration not given here
- Condition parameters: P. aeruginosa PAO1 growth/biofilm, A600, 12 h; higher = more signal
Answer using only a numeral; do not append any unit.

Consider the following illustrative entries.
| Compound | Readout kind | Value |
| --- | --- | --- |
| C=CCOC(=O)[C@H]1[C@@H]2C(=O)O[C@@H](c3ccccc3)[C@@H](c3ccccc3)N2[C@@H](c2ccc(OCCOC(=O)[C@H]3C[C@H]4C(=O)N[C@@H](CCCC[N+](C)(C)C)C(=O)N4[C@H]3c3ccc(O)cc3)cc2)[C@]12C(=O)Nc1ccc(I)cc12 | z-score | -0.379 |
| COc1ccc([Si](C)(C)[C@@H]2[C@@H](CC(=O)N3CCC[C@H]3CO)O[C@]3(C(=O)N(c4ccccc4)c4ccccc43)[C@H]2C)cc1 | z-score | -0.106 |
| CCN(CC)c1ccc(N2CC=CC34O[C@@H]5C=CCCOC(=O)C5[C@H]3C(=O)N(CCCCCCO)[C@@H]4C2=O)cc1 (some centres undefined) | z-score | 0.786 |

# input compound: `C=CCOC(=O)[C@H]1[C@@H]2C(=O)O[C@@H](c3ccccc3)[C@@H](c3ccccc3)N2[C@@H](c2ccc(OCCOC(=O)[C@H]3C[C@H]4C(=O)N[C@@H](CCCCN(C)C)C(=O)N4[C@H]3c3ccc(O)cc3)cc2)[C@]12C(=O)Nc1ccc(I)cc12` ; wanted: its z-score
0.739

# input compound: `CC(C)=CCN[C@H](CO)c1ccccc1` ; wanted: its z-score
-0.517

# input compound: `COC(=O)[C@@]1(Cc2ccc(OC)cc2)[C@H]2c3cc(C(=O)N(C)C)n(Cc4ccc(S(C)(=O)=O)cc4)c3C[C@H]2CN1C(=O)c1ccccc1` ; wanted: its z-score
2.2

# input compound: `CC(C)C(=C=CC[C@@H](O)c1ccc(OCCO)cc1)C[C@@H](O)c1ccccn1` ; wanted: its z-score
0.85

# input compound: O=C1C2C=CC(C(O)c3cc(C(F)(F)F)cc(C(F)(F)F)c3)N(n3cnnc3)C2C(=O)N1Cc1ccccc1 (centres undefined) ; wanted: its z-score
0.933

# input compound: `[N-]=[N+]=Nc1ccccc1[C@@H]1OC(c2ccc(OCCCO)cc2)=N[C@]1(CCS(=O)(=O)c1ccccc1)C(N)=O` ; wanted: its z-score
-0.291
